target: Human Cav3.1 calcium channel (Homo sapiens, UniProt O43497); construct: expressed in transfected cells; host or cells: HEK-293 natClytin/TASK1+Cav3.1 cell line; assay: Human Cav3.1 calcium channel patch clamp assay (SyncroPatch 384PE; single point and IC50, voltage dependent block); assay type: cell-based; conditions: voltage dependent block (VDB); HEK-293 natClytin/TASK1+Cav3.1 cell line; read-out: Cav3.1 IC50
Sequence (O43497 whole entry): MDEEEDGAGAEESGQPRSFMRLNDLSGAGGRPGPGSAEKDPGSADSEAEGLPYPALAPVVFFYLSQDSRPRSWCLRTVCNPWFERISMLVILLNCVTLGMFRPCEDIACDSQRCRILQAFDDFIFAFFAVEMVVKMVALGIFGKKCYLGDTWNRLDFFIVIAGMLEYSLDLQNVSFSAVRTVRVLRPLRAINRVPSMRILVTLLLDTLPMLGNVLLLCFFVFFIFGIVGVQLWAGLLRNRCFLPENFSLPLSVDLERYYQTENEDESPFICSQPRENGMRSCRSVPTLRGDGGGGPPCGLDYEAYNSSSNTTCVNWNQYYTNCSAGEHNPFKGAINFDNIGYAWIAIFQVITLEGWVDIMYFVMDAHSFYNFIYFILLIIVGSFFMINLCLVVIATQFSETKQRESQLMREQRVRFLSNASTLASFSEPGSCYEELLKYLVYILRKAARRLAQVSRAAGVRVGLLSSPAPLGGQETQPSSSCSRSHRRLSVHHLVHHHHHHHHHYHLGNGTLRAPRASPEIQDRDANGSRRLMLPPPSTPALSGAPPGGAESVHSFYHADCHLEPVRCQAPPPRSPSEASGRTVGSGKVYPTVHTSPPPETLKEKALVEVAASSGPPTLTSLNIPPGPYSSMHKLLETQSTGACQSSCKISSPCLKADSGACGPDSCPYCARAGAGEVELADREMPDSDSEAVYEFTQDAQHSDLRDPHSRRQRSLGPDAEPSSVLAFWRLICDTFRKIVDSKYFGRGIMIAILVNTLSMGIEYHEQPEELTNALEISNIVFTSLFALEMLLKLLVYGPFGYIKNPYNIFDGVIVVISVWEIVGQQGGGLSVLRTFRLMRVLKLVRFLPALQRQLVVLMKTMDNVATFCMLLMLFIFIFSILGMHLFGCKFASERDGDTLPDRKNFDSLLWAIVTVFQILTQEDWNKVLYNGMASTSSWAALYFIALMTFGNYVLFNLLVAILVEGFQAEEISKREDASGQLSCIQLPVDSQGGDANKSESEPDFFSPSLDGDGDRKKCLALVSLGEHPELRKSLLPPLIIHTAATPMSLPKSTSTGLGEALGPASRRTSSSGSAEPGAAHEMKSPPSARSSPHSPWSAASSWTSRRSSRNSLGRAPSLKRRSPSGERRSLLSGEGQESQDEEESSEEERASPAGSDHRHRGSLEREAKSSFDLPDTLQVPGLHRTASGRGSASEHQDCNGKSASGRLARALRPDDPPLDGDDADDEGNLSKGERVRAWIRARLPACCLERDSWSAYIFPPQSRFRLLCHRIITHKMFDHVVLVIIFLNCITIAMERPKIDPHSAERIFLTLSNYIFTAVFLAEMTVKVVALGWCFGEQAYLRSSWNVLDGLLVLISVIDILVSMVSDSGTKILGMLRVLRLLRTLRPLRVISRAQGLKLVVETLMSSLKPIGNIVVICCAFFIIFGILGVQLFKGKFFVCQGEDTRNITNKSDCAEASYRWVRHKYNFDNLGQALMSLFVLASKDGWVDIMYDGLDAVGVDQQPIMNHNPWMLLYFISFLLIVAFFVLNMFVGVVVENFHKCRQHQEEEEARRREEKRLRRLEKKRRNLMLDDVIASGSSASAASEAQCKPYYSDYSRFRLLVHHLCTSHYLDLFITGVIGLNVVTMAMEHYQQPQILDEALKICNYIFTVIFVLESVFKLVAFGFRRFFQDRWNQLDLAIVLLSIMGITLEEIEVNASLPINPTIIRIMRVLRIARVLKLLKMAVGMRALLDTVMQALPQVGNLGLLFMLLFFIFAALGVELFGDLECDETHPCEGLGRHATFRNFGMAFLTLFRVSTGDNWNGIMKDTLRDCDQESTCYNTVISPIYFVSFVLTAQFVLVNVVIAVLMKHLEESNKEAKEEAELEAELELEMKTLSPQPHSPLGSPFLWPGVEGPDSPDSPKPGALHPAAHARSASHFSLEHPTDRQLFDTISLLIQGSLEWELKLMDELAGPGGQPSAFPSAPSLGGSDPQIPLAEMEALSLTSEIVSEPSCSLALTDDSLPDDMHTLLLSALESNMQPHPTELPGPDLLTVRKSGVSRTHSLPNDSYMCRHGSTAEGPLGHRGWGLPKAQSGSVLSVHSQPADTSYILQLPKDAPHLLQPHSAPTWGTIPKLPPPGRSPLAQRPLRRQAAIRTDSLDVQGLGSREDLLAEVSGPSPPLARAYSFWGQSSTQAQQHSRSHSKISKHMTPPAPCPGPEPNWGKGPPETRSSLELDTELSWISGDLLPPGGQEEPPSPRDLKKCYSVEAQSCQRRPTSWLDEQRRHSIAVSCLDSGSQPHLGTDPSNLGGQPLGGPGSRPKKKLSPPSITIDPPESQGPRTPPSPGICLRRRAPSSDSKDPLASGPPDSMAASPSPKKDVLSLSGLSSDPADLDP
Property: IC50 (µM)
One number for each entry, in µM.

> print(dat)
                                   compound  measurement.units  measurement
1  C[C@H](NC(=O)CN1C[C@@H]2C[C@H]1CN2CC(=O)NC(C)(C)C)C12CC3CC(CC(C3)C1)C2 [Compound 326]                 µM        0.734
2  O=C(CN1CC2CC(C1)N2CCS(=O)(=O)c1ccccc1)Nc1cc(F)cc(Cl)c1 [Compound 171]                 µM         1.42

--- query ---
Param readout = IC50; param system = Human Cav3.1 calcium channel (Homo sapiens, UniProt O43497); param query = CC1(C)CN(C(=O)CN2C[C@@H]3C[C@H]2CN3CC(=O)NC23CC4CC(CC(C4)C2)C3)C1 [Compound 317] ; response: value
1.08

Just for reference, patent US20250213558A1 is where these values come from.
